system_under_test: T1, PDZD7 PDZ12 G228R (UniProt E9Q9W7 84-289, G228R)
T1 sequence: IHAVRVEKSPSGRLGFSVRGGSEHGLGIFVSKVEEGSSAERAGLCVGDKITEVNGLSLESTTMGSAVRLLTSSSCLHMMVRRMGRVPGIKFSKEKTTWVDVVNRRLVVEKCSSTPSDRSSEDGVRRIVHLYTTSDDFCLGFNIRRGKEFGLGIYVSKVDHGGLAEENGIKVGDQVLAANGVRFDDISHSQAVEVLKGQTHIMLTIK
test_method_notes: ITC
property: pKd
In plain terms, pKd is the concentration in mol/L turned into minus its base-10 logarithm.

Entry GHSSGLYVDEEELMNAIKGFSSVTKEHTAFTDTHL (domain or fragment) [USH2A-CT (Short, S)] : reported pKd = ? 4.25
